# measurement.notes: yeast display, Sf9 membrane polyspecificity reagent, FACS + sequencing; frameworks hold sequencing errors
parameter: polyreactivity (PSR sort gate)

monomer.sequence: QVQLVESGGGLVQAGGSLRLSCAASGGIFRWYVMGWYRPEPGKERDFVAAISQSGGSTYYADSVKGRFTISRDNAKNTVYLQMNCLKPEDTAVYYCAAGFYHYRSFNFDYWGQGTQVTVSS
parameter: polyreactivity (PSR sort gate)
endpoint.value: high polyreactivity
//
monomer.sequence: QVQLVESGGGLVQAGGSLRLSCAASGFTIWQNAMGWYRQAPGKERELVAGIRLSGGSTYADSVKGRFTISRDNAKNTVYLQMNSLKAEDTAVYYCNAAYKNSPYDYWGQGTQVTVSS
parameter: polyreactivity (PSR sort gate)
endpoint.value: high polyreactivity
//
monomer.sequence: QVQLVESGGGLVQAGGSLRLSCAASGRTLPATGMGWYRQAPGKERELVAAINWRGGITYYADSVKGRFTISRDNAKNTVYLQMNSLKPVDTAVYYCARLRYFLLNGSLRYGTSDRDYWGQGTQVTVSS
parameter: polyreactivity (PSR sort gate)
endpoint.value: high polyreactivity
//
monomer.sequence: QVQLEESGGGLVQAGGSHRLSCAASGSIFGGNAMGWYRQAPGKERELVAAITQSGGRTYYADSVKGRCTISRDTAKNTVYLQMNSLKPEDTAVYYCNRVYKSQTTDSYPLSYYYWGQGTQVTVSS
parameter: polyreactivity (PSR sort gate)
endpoint.value: high polyreactivity
//
monomer.sequence: HVQLVETGGGIVQAGGSLRLSCAASGFIFRYYARGWYRPSHGKETELVAAIDYSGGSTNYADSVKGRFTISRDYAKNTVSLQMNSLKPEDTAVYYCAAYLGWGYDYWGQGTQVTVSS
parameter: polyreactivity (PSR sort gate)
endpoint.value: low polyreactivity
//
monomer.sequence: QVHLVDSGGRLVQAGGSLRLSCSASGNNFPGYAMGLYRQAPGKEREFVATITSNDGTTYYADSVKGRFTISRDNAMNTFFLQMNSLKPEDTAVYYCASVVRQYGFDYLGQGTQVTVSS
parameter: polyreactivity (PSR sort gate)
endpoint.value: low polyreactivity
//
monomer.sequence: QVHLVESGGGLVQAGGSLRLSSAASGFIFGKNDMGWYRQAPGKERELVAAITIGGSTNYADSVKGRFTISRDNAKNTVYLQLNSLKPEDTAVYYCAADSSSLYNYWGQGTQVTVSS
parameter: polyreactivity (PSR sort gate)
endpoint.value: low polyreactivity
//
monomer.sequence: QVQLVESGGVLVQAGGSLRLSCAPSGRIFNYYAMGWYRQAPGKERELVAAISSSGGRTYYADSVKGRFTISRDNAKNTVYLQMNSLKPEDTAVYYCAAYDSLRYSTYDYWGQGTQVTVSS
parameter: polyreactivity (PSR sort gate)
endpoint.value: high polyreactivity
//
monomer.sequence: QVQLVESGGGLVQAGGSLRLSCAASGRILRQYAMGWYRQEPGKERELVAAISRSGASTFYADSVKGRFTISRDNAKNTVYLPMNSLKPEYTAVYYCASKRYLKYGYWGQGTQVTVSS
parameter: polyreactivity (PSR sort gate)
endpoint.value: high polyreactivity
//
monomer.sequence: QVQLVESGGGLVQAGGSLRLSCAASGRIFVGNAMGWYRQAPGKERELVAAISRSGGRTYYADSVKGRFTISRDNAKNTVYLQMNSLKPEDTAVYYCYTRVYAGKYDYWGQGTQVTVSS
parameter: polyreactivity (PSR sort gate)
endpoint.value: high polyreactivity
//
monomer.sequence: QVQLVESGGGLVQAGGSLRLSCAASGSTLYRYAMGWYRQAPGQERELFATIRSGVNTNYADSVKGRFTISRDNAKNTVYLQMNSLKPEDTAVYYCNARTVYGVYWGRYDYWGQGTQVTVSS
parameter: polyreactivity (PSR sort gate)
endpoint.value: high polyreactivity
